- Test system: cultured human mast cells (CHMC)
- methodNotes: CHMC low cell density ionomycin activation: tryptase assay
- Format: cell-based
- cond: Homo sapiens, Mast cell, ionomycin stimulated, tryptase release, second symbol of cell, read-out: CHMC -IONO
Provide the reported IC50 of each item.

Q. Given the compound `Cc1onc(-c2ccccc2)c1NC(=O)c1cc(Nc2cccc(O)c2)nc2ccc(Br)cc12` , what is its reported IC50?
A. ≤ 10 µM

Q. Entry `Cc1cc(OC(=O)c2c(-c3ccccc3)noc2C)c2ccccc2n1` : reported IC50 = ?
A. ≤ 10 µM

Q. Returns the measured IC50 for the input compound. Input: `Cc1onc(-c2ccccc2)c1NC(=O)c1cc(Cl)nc2ccc(Br)cc12`
A. > 10 µM

Q. Entry under review: `Cc1cc(C(=O)Nc2c(-c3ccccc3)noc2C)c2cc(F)ccc2n1` . Reported IC50?
A. > 10 µM

Q. Param item = `Cc1onc(-c2ccccc2)c1C(=O)Nc1ccnc2cc(C(F)(F)F)ccc12` ; retrieve measured IC50.
A. ≤ 10 µM
